# Tested on: Escherichia coli
# method-summary: Plate reader antimicrobial susceptibility test (MIC) directly from positive blood culture
# Type: cell-based
# measurement-context: Escherichia coli; 6 hours incubation at 37° C; positive blood culture diluted 500-fold in CAMHB; assay of FIG. 4; read-out: MIC (6 hours)
Readings of MIC for the listed molecules
assay-endpoint: MIC

INSERT INTO measurements (sample_smiles, experimental_system, recorded_result) VALUES
  ('C[C@@H](O)[C@H]1C(=O)N2C(C(=O)O)=C(S[C@@H]3CN[C@H](C(=O)N(C)C)C3)[C@H](C)[C@H]12', 'Escherichia coli', '≤ 0.0312 µg/mL'),
  ('NCC[C@H](O)C(=O)N[C@@H]1C[C@H](N)[C@@H](O[C@H]2O[C@H](CN)[C@@H](O)[C@H](O)[C@H]2O)[C@H](O)[C@H]1O[C@H]1O[C@H](CO)[C@@H](O)[C@H](N)[C@H]1O', 'Escherichia coli', '2 µg/mL'),
  ('C[C@H]1COc2c(N3CCN(C)CC3)c(F)cc3c(=O)c(C(=O)O)cn1c23', 'Escherichia coli', '≤ 0.0312 µg/mL'),
  ('CC(C)(O/N=C(\C(=O)N[C@@H]1C(=O)N2C(C(=O)[O-])=C(C[n+]3ccccc3)CS[C@H]12)c1csc(N)n1)C(=O)O', 'Escherichia coli', '0.0625 µg/mL'),
  ('NC[C@H]1O[C@H](O[C@H]2[C@H](O)[C@@H](O[C@H]3O[C@H](CO)[C@@H](O)[C@H](N)[C@H]3O)[C@H](N)C[C@@H]2N)[C@H](N)C[C@@H]1O', 'Escherichia coli', '1 µg/mL');
